- measurement description: Urinary excretion study in rats after oral NS, SF or CNS (LC–MS/MS)
- Assay type: in vivo
- experimental conditions: rat urine, oral NS 60 mg/kg, 12 h
experimental endpoint: Excretion amount (µg)
Give the value in µg but do not write µg after it.

For this molecule ( CC(C)=CCC[C@](C)(O[C@@H]1O[C@H](CO)[C@@H](O)[C@H](O)[C@H]1O)[C@H]1CC[C@]2(C)[C@@H]1[C@H](O)C[C@@H]1[C@@]3(C)CC[C@H](O)C(C)(C)[C@@H]3[C@@H](O[C@@H]3O[C@H](CO)[C@@H](O)[C@H](O)[C@H]3O)C[C@]12C [ginsenoside Rg1] ), measured Excretion amount is 3.130
